Species: Homo sapiens
Test: Inhibition of Kras:GDP:SOS complex (unknown origin) at 200 uM after 2.5 hrs by HTRF method
The source made the active and inactive calls. No cut-off for these calls is given here.

{"compound": "CCN1C(=O)C=C(c2cc(Cl)cc(C(N)=O)c2)C1=O", "inhibition": "40%"}
{"compound": "CCN1C(=O)C=C(c2cccc(CN)c2)C1=O", "inhibition": "inactive"}
{"compound": "CCN1C(=O)C=C(c2cccc(C(N)=O)c2)C1=O", "inhibition": "inactive"}
{"compound": "O=C1C=CC(=O)N1C1CCS(=O)(=O)C1 (stereo not given)", "inhibition": "40%"}
{"compound": "CCN1C(=O)C=C(c2cc(C#N)cc(C(=O)O)c2)C1=O", "inhibition": "inactive"}

----------
In this section, each of the compounds is paired with its reported pKd.
Test: Binding affinity to 6His-TEV-SH-HRas(1 to 166) (unknown origin)/6His-TEV-SH-SOS (unknown origin) complex by nuclear magnetic resonance analysis
Set-up: species or system Homo sapiens
pKd: −log10 of the molar value.

{"compound-smiles": "CSc1nc(-c2c(C)cccc2C)nc(N2CCNCC2)n1", "pKd": 2.80}
{"compound-smiles": "Nc1ccc(S(=O)(=O)NC(=O)C2CC2)cc1", "pKd": 2.22}
{"compound-smiles": "Brc1ccc2cc[nH]c2c1", "pKd": 2.22}
{"compound-smiles": "Brc1ccc(CN2CCCC2)cc1", "pKd": 2.89}
{"compound-smiles": "OC1(c2ccc(Br)cc2)CCNCC1", "pKd": 2.77}
{"compound-smiles": "COc1ccc(S(=O)(=O)Nc2nccs2)cc1", "pKd": 2.22}
{"compound-smiles": "Nc1ccc(S(=O)(=O)N2CCCCC2=O)cc1", "pKd": 2.52}
